Recorded growth inhibition for the following compounds
- protocol text: NCI Yeast Anticancer Drug Screen. Data for the cln2 rad14 strain (AID 165);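 note: 0% = growth equal to vehicle treated cultures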
- assay context: S. cerevisiae cln2 rad14 strain, at 50.0 µM, stronger effect = higher value
This is part of a sample that, as a whole, favours compounds with a hit. Of some 79,000 tested, about 15% had one in any assay. The source made the active and inactive calls. Cut-off read from the data, not from the text of the source: active = growth inhibition above about 70%; inactive = the rest.

O=C(Nc1ccccc1C(=O)NCc1ccccc1)/C(=C/c1ccccc1)NC(=O)c1ccccc1 :: 4.05% (inactive)

// next item, growth inhibition requested
State the recorded growth inhibition for this entry: "COc1ccc2nc(-c3ccc(F)cc3)cc(C(=O)O)c2c1"
16.9% (inactive)

====

Recorded growth inhibition for the following compounds
- protocol text: NCI Yeast Anticancer Drug Screen. Data for the sgs1 mgt1 strain (AID 161);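 note: 0% = growth of cultures given vehicle only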
- assay context: S. cerevisiae sgs1 mgt1 strain, at 50.0 µM, stronger effect = higher value
This is part of a sample that, as a whole, favours compounds with a hit. Of some 79,000 tested, about 15% had one in any assay.
Quick note: give the figure in %, leave out the unit.

O=C(NC1(C(=O)Oc2ccc([N+](=O)[O-])cc2)CCCC1)OCc1ccccc1 :: 26.1

State the recorded growth inhibition for this entry: Cc1cccc(NC(=O)c2ccc(Cl)cc2Cl)n1 (tested in a mixture with another compound)
3.45

State the recorded growth inhibition for this entry: "CCOC(=O)NC(=O)c1cn(C2CCCCC2)c(=O)[nH]c1=O"
-5.9

State the recorded growth inhibition for this entry: "Nc1c2ccccc2nc2nccnc12"
5.95

State the recorded growth inhibition for this entry: "O=C(O)c1cc(-c2ccccc2)nc2cc(Cl)ccc12"
19.1

State the recorded growth inhibition for this entry: "NC(N)=NCCCc1ccccc1"
0.8

State the recorded growth inhibition for this entry: "O=C(c1ccccc1)c1oc(CO)cc(=O)c1O"
-4.35

State the recorded growth inhibition for this entry: CCOc1ccccc1NC(=O)C1CCCCC1C(=O)O (centres undefined)
14.6

State the recorded growth inhibition for this entry: Cc1cccc(C2ON=C(c3ccccc3)N2C23CC4CC(CC(C4)C2)C3)c1 (centres undefined)
-22.1

State the recorded growth inhibition for this entry: "O=C1Nc2cc(F)ccc2C1=O"
7.95

State the recorded growth inhibition for this entry: "O=C1CSCc2sccc21"
6.55
